Values from patent US20240025868A1

Test system: microglial cells
assaySummary: MTT viability of microglial cells (microglial toxicity); also: test concentration or dose not given here
Type: cell-based
experimentalSetup: percentage of MTT viability compared to unstimulated DMSO control cells; Table 2
measuredProperty: MTT (%)
# number only, unit % dropped from output

Input: Which measured MTT value corresponds to CN1CCCCC1CCN1c2ccccc2Sc2cc(C(F)(F)F)ccc21 (centres unmarked) [TC84-144] ?
Output: 41.27

Input: Fill in the blank: the reported MTT of CC(=O)N1c2ccccc2Sc2ccc(C(F)(F)F)cc21 [TC84-32] is ____.
Output: 141.59

Input: Look up MTT: CC(=O)c1ccc2c(c1)N(C(C)=O)c1ccccc1S2 [TC84-13]
Output: 154.03

Input: // lookup MTT for COc1ccc2c(c1)N(CCCN(C)C(C)=O)c1ccccc1S2 [TC84-163]
Output: 108.79

Input: Consider the compound shown here: CC(=O)c1ccc2c(c1)N(CCCN(C)C(C)=O)c1ccccc1S2 [TC84-161] What is its recorded MTT?
Output: 106.15
